Data origin, for the record: patent US20040115622A1

- TARGET OR SYSTEM: T1, HLA-DR molecule encoded by the allele DRB1*1301 (human)
- T1 chain 1: not shown
- T1 chain 2: not shown
- MEASUREMENT PROTOCOL: competition ELISA vs biotinylated B1 21-36
For each record, write down the corresponding log10 IC50.
Annotation: log10 of IC50, nM basis.

Guide cases for log10 IC50, answers given:
BINDER: PTVRERMRRAEPAAD (modifications not checked) [Nef1.4 peptide (positions 14-28 of the HIV-1 Nef protein, Bru strain), P03406 14-28]
log10 IC50: 2.88
//
BINDER: GKWSKSSVVGWPTVR (modifications not checked) [Nef1.1 peptide (positions 3-17 of the HIV-1 Nef protein, Bru strain), P03406 3-17]
log10 IC50: 3.48
//
BINDER: SRLAFHHVARELHPE (modifications not checked) [Nef13.4 peptide (positions 187-201 of the HIV-1 Nef protein, Bru strain), P03406 187-201]
log10 IC50: 2.54
//
BINDER: REVLEWRFDSRLAFH (modifications not checked) [Nef13.1 peptide (positions 178-192 of the HIV-1 Nef protein, Bru strain), P03406 178-192]
log10 IC50: 2.94
//
BINDER: WRFDSRLAFHHVARE (modifications not checked) [Nef13.3 peptide (positions 183-197 of the HIV-1 Nef protein, Bru strain), P03406 183-197]
log10 IC50: 2.40
//
BINDER: EWRFDSRLAFHHVAREL (modifications not checked) [Nef13 peptide (positions 182-198 of the HIV-1 Nef protein, Bru strain), P03406 182-198]
log10 IC50: 2.88

Give log10 IC50 for each listed item.
1. MGGKWSKSSVVGWPTVRERMRRAEPAADGVGAASRD (modifications not checked) [Nef1 peptide (positions 1-36 of the HIV-1 Nef protein, Bru strain), P03406 1-36]
2. FHHVARELHPEYFKN (modifications not checked) [Nef13.6 peptide (positions 191-205 of the HIV-1 Nef protein, Bru strain), P03406 191-205]
3. LEWRFDSRLAFHHVA (modifications not checked) [Nef13.2 peptide (positions 181-195 of the HIV-1 Nef protein, Bru strain), P03406 181-195]
4. SSVVGWPTVRERMRR (modifications not checked) [Nef1.2 peptide (positions 8-22 of the HIV-1 Nef protein, Bru strain), P03406 8-22]
5. LAFHHVARELHPEYF (modifications not checked) [Nef13.5 peptide (positions 189-203 of the HIV-1 Nef protein, Bru strain), P03406 189-203]

2.51
3.48
2.54
2.85
2.78

Determine its reported log10 IC50: VGWPTVRERMRRAEP (modifications not checked) [Nef1.3 peptide (positions 11-25 of the HIV-1 Nef protein, Bru strain), P03406 11-25]
2.85
